Hey, just so you know, these numbers are from PubChem BioAssay AID686979.

- EXPERIMENT NOTES: qHTS for Inhibitors of human tyrosyl-DNA phosphodiesterase 1 (TDP1): qHTS in cells in presence of CPT; also: nearly all actives have a fitted effect of over 55% in size
- RUN PARAMETERS: chicken DT40 Tdp1-/-;hTDP1 cells + 20 nM CPT, ATP luminescence, 48 h; series mostly up to 46.2 µM
- Protocol: Human tyrosyl-DNA phosphodiesterase 1 (TDP1) is a novel repair gene, and we propose to use it as a new target for anticancer drug development. […] For the primary screen, Tdp1-/-;hTDP1 cells will be exposed to small molecules in the presence or absence of CPT, and their growth kinetics will be evaluated after 48 hours by measuring ATP activity. […] The hit compounds will then be evaluated in the presence or absence of CPT using Tdp1-/- cells. […]
About 50,000 (12%) of roughly 420,000 compounds were called active. About 26% were inconclusive and are not listed. Calls follow the shape of the dose curve; as a rule, active = well fitted inhibition curve with a large enough effect; inconclusive = small, poorly fitted or top-dose-only effect; inactive = flat fitted curve, though single readings scatter. Shown is part of a subset that was picked to be rich in actives.
Pick one and only one: 1.0 for active, 0.0 for inactive

O=C(Nc1cccc(Cl)c1)c1cncn1-c1ccc(F)cc1; 0.0

(Q) GET /call?item= COc1cc(NC(=O)c2cccs2)ccc1NC(=O)c1ccccc1Cl returns the recorded outcome of this test.
(A) 0.0

(Q) GET /call?item= CCC/C=C(\CCC)C(NC(=O)Cc1ccccc1)c1ccc(C(=O)OC)cc1 (configuration not stated) returns the recorded outcome of this test.
(A) 1.0

(Q) GET /call?item= COc1ccc(-c2nc3ccccc3c(=O)n2CCc2ccc(O)cc2)cc1 returns the recorded outcome of this test.
(A) 1.0

(Q) GET /call?item= COc1cc(NC(=O)c2cc(-c3ccc(F)cc3OC(C)C)n[nH]2)cc(OC)c1OC returns the recorded outcome of this test.
(A) 1.0

(Q) GET /call?item= CC(C)Oc1cc(F)ccc1-c1cc(C(=O)Nc2cccc(Cl)c2)[nH]n1 returns the recorded outcome of this test.
(A) 1.0

====

- EXPERIMENT NOTES: qHTS for Inhibitors of human tyrosyl-DNA phosphodiesterase 1 (TDP1): qHTS in cells in presence of CPT; also: nearly all actives have a fitted effect of over 55% in size
- RUN PARAMETERS: chicken DT40 Tdp1-/-;hTDP1 cells + 20 nM CPT, ATP luminescence, 48 h; series mostly up to 46.2 µM
Among all 420,000 compounds or so, about 50,000 (12%) were called active. Not shown: some 26% with an inconclusive outcome. Calls follow the shape of the dose curve; as a rule, active = well fitted inhibition curve with a large enough effect; inconclusive = small, poorly fitted or top-dose-only effect; inactive = flat fitted curve, though single readings scatter. Many of the other results were omitted from the sample, so actives are more common in it than they were.
Pick one and only one: 1 (active), 0 (inactive)

# count of solved cases: 4
Cc1cc(Nc2ccc(C(=O)N3CCCCC3)cc2)c2cccc(C)c2n1; 0
CC(=O)Nc1ccccc1Sc1ccc2c3c(cccc13)C(=O)N(c1ccc(C)cc1)C2=O; 1
O=C(COC(=O)c1cc(-c2cccs2)nn1-c1ccccc1)Nc1cc([N+](=O)[O-])ccc1Cl; 0
O=C(Cc1c(O)c2ccccc2[nH]c1=O)NCc1ccccc1; 0

(Q) GET /call?item= O=C1N(c2ccccc2)C(=Nc2ccccc2)SC12CC2 returns the recorded outcome of this test.
(A) 0

(Q) GET /call?item= COCCN(C(=O)CSCc1ccc(C)cc1)c1c(N)n(CC(C)C)c(=O)[nH]c1=O returns the recorded outcome of this test.
(A) 0

(Q) GET /call?item= O=C1NC(c2ccccc2)CCC1(Cl)Cl (configuration not stated) returns the recorded outcome of this test.
(A) 0
